assay: yeast display, Sf9 membrane polyspecificity reagent, FACS + sequencing; frameworks hold sequencing errors

| seq | polyreactivity (PSR sort gate) |
| --- | --- |
| QGQLVESGGGLVQAGGSLRLSCAASGSTFANYDMAWYRQAPGKERELVAAITSRGGSTYYADSVKGRFTISRDNAKNTVYLQMNSLKPEDTAVYYCAAVTRNQGSFRYYFWGQGTQVTVSS | high polyreactivity |
| QVQLVESGGGLVQAGGSLRLSCAASGLTFEDNDMGWYRQAPGKERELVAAISSAGSTSYADSVKGRFTISRDNAKNTVYLQMNSLKPEDTAVYYCAKRYYLYHYDSWGQGTQVTVSS | low polyreactivity |
| QVQLEESGGGLVQAGGSLRLSCAASGFTFDGYAMGWYRPAPGKERELVAAITSSGGSTYYADSVKGRFTISRDNTKNTVYLQMNSLKPEDTAVYYCNAVYYYGYYYYWTEFNYWGQGTQVTVSS | high polyreactivity |
| QVQLVESGGGLVQAGGSLRLSCAASGLTFSGNVMGWYRQAPGKERELVAAIDRSGGSTYYADSVKGRFTISRDNAKNTVYLQMNSLKPEDTAVYYCAVSSYPNHSRSWDDYWGQGTQVTVSS | low polyreactivity |
| QVQLVESGGGLVQAGGSLRLTCAASGRTFRVYAMGWYRQAPGKERELVATITSSGGSTYYADSVKGRFTISRDNAKKTVYLQMNSLKREDTAVYYCNVSVYYNYDSSYDYWGQGTQVTVSS | low polyreactivity |
| QVQLVESGGGLVQAGGSLRLSCAASGYTFSGYAMGWYRQAPGKERELVAAISKRGGSTYYADSVKGRFTISRDNAKNTVYLQMNSLKPEDTAVYYCAKRSGYRSHYGYWGQGTQVTVSS | high polyreactivity |
| QVQLVESGGGLVQAGGSLRLSCAASGFIFERNTMGWYRQAPGKERELVATISRSAGNTYYADSVKGRFTISRDNANNTVYLQMNSLKPEDSAAYYCAKDHRTRGYDYWGQGTQVSVSS | low polyreactivity |
| QVQLVESGGGLVQAGGSLRLSCAASGFTFVAYAMGWYRQAPGKERELVAAISKSGGNTYYADSVKGRFTISRDNAKNTVYLQMNSLKPEDTAVYYCAAPRRYAWGQVNYWGQGTQVTVSS | high polyreactivity |
| QVQLVESGGGLVQAGGSLRLSCAASGSIFIGYAMGWYRQAPGKERELVAAISNSGGRTYYADSVKGRFTISRDNAKNTVYLQMNSLKPEDTAVYYCNVAYRIPYRMDYWGQGTQVTVSS | high polyreactivity |
| QVQLVESGGGLVQAGGSLRLTCAASGFTFGPYDMGWSRQAPGKERELVAAITDSSGSTHYADSVKGRFTISRDNAKNTVYLQMNSLKPEDTAVYYCAAQLKSHSTYGHDYWGQGTQVTVSS | low polyreactivity |
| QVQLVESGGGLVQAGGSLRLSCAASGSTFPTYVMGWYRQAPGKERELVASINSDTGTYYADSVKGRFTISRDNAQNTVYLQMNSLKPEDTAVYYCNARQAYYFYPFEYDYWGQGTQVTVSS | low polyreactivity |
| QVQLVESGGGLVQAGGSLRLSCAASGSTFYVNAMGSYRKAPGKEMEFVAAITWNSGSTYYADSVKGRFTISRDNANYTVYLQMNSLKPEDTAVYYCAAVLSVRDYGYDYWGQGTQVTVSS | low polyreactivity |
| QVQLVESGGGLVQAGGSLRLSCAASGLIFWQYAMGCYRQAPGKERELVAAISIGGSTNYADSVKGRFTISRDNAKNTVYFQMNSLKPEDTAVYYCNAAFLRQVWAGYNYWGQGTQVTVSS | high polyreactivity |
| QVQLVESGGGLVQAGGSLRLSCAASGIIFWFYAMGWYRQAPGKERELVAVISWNGDSTYYADSVKGRFTISRDNAKNTVYLQMNSLKPEDTEVYYCSAETYLGVYGSEYDYWGQGTQVTVSS | low polyreactivity |
| QVQLVESGGGLVQAGGSLRLSCAASGSTIRKYAMGWYRQAPGKERELVAAISARGGSTYYADSVKGRFTISRDNAKNTVYLQMNSLNPEDTAVYYCAADGYRPYSTFDYWGQGTQVTVSS | high polyreactivity |
